EXPERIMENT: Solubility of the compound at pH 6.8
Type: physicochemical
CONDITIONS: buffer
VALUE_KIND: solubility (µg/mL)

>  <SMILES_RECORD>
CN1CCN(c2ccc(-n3cc(-c4ccncc4OCC4CCNCC4)cn3)cc2)CC1

>  <OBSERVED_RESULT>
220

$$$$

* * *

EXPERIMENT: Extraction ratio in mouse microsomes
Assay type: ADME, Microsome

>  <SMILES_RECORD>
CN1CCN(c2ccc(-n3cc(-c4ccncc4OCC4CCNCC4)cn3)cc2)CC1

>  <hepatic extraction ratio>
0.75

$$$$

* * *

TARGET_UNDER_TEST: Mitogen-activated protein kinase kinase kinase kinase 4 (Homo sapiens, UniProt O95819)
Sequence (O95819 whole entry): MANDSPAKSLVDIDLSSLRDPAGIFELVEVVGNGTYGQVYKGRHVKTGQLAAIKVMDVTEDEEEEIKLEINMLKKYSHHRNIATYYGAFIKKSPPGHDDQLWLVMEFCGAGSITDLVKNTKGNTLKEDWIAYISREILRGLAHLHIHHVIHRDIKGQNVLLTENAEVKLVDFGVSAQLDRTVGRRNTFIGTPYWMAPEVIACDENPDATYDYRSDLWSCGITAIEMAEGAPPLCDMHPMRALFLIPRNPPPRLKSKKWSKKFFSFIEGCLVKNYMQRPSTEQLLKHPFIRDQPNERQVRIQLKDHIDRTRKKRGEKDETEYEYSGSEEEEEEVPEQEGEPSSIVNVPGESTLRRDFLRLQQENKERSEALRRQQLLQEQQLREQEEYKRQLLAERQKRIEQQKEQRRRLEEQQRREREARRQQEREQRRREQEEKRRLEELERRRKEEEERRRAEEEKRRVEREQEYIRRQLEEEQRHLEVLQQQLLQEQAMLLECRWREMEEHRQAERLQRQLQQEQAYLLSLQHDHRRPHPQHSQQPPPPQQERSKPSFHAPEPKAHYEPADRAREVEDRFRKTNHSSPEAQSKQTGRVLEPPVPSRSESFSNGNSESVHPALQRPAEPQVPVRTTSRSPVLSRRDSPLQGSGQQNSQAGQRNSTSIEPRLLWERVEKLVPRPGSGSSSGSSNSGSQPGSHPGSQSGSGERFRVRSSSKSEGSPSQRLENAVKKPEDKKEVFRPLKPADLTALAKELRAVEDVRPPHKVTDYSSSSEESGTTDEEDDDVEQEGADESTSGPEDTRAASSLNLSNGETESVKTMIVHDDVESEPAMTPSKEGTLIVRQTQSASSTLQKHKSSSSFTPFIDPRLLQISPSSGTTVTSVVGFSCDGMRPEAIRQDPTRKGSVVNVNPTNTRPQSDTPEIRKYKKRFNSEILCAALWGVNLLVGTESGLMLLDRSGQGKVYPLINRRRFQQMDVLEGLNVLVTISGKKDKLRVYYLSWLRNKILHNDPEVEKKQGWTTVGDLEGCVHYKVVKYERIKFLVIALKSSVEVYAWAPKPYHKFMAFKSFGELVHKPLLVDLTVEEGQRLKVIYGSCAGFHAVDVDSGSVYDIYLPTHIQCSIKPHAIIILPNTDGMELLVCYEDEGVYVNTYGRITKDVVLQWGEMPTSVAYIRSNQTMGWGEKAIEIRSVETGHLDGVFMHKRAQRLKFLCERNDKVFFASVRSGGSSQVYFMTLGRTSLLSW
EXPERIMENT: Inhibition of MAP4K4 (unknown origin)
pIC50: −log10 of the molar value.

>  <SMILES_RECORD>
O=C(NCc1ccccn1)c1ccc(-n2cc(-c3ccncc3)cn2)cc1

>  <pIC50>
> 5.30

$$$$

* * *

EXPERIMENT: Cmax in C57BL/6 mouse at 30 mg/kg, sc by LC-MS/MS analysis
Format: ADME, organism-based
Parameters: dose 30 mg/kg, route subcutaneous
CONDITIONS: in vivo

>  <SMILES_RECORD>
CN1CCN(c2ccc(-n3cc(-c4ccncc4OCC4CCNCC4)cn3)cc2)CC1

>  <Cmax>
6.56 µM

$$$$

* * *

EXPERIMENT: AUC (0 to 7 hrs) in C57BL/6 mouse at 1 mg/kg, iv by LC-MS/MS analysis
Format: ADME, organism-based
Design: time < 7 hr, dose 1 mg/kg, route intravenous
CONDITIONS: in vivo

>  <SMILES_RECORD>
CN1CCN(c2ccc(-n3cc(-c4ccncc4OCC4CCNCC4)cn3)cc2)CC1

>  <AUC(0-t) at 7 h [µM·h]>
0.23

$$$$

* * *

EXPERIMENT: Volume of distribution at steady state in C57BL/6 mouse at 1 mg/kg, iv by LC-MS/MS analysis
Assay type: ADME, organism-based
CONDITIONS: in vivo, read-out: Vdss

>  <SMILES_RECORD>
CN1CCN(c2ccc(-n3cc(-c4ccncc4OCC4CCNCC4)cn3)cc2)CC1

>  <READOUT_UNIT>
L/kg

>  <Vd>
40.8

$$$$

* * *

EXPERIMENT: Tmax in C57BL/6 mouse at 30 mg/kg, sc by LC-MS/MS analysis
Assay type: ADME, organism-based
CONDITIONS: in vivo

>  <SMILES_RECORD>
CN1CCN(c2ccc(-n3cc(-c4ccncc4OCC4CCNCC4)cn3)cc2)CC1

>  <Tmax [min]>
24

$$$$

* * *

TARGET_UNDER_TEST: Platelet-derived growth factor receptor alpha (Homo sapiens, UniProt P16234)
Sequence (P16234 whole entry): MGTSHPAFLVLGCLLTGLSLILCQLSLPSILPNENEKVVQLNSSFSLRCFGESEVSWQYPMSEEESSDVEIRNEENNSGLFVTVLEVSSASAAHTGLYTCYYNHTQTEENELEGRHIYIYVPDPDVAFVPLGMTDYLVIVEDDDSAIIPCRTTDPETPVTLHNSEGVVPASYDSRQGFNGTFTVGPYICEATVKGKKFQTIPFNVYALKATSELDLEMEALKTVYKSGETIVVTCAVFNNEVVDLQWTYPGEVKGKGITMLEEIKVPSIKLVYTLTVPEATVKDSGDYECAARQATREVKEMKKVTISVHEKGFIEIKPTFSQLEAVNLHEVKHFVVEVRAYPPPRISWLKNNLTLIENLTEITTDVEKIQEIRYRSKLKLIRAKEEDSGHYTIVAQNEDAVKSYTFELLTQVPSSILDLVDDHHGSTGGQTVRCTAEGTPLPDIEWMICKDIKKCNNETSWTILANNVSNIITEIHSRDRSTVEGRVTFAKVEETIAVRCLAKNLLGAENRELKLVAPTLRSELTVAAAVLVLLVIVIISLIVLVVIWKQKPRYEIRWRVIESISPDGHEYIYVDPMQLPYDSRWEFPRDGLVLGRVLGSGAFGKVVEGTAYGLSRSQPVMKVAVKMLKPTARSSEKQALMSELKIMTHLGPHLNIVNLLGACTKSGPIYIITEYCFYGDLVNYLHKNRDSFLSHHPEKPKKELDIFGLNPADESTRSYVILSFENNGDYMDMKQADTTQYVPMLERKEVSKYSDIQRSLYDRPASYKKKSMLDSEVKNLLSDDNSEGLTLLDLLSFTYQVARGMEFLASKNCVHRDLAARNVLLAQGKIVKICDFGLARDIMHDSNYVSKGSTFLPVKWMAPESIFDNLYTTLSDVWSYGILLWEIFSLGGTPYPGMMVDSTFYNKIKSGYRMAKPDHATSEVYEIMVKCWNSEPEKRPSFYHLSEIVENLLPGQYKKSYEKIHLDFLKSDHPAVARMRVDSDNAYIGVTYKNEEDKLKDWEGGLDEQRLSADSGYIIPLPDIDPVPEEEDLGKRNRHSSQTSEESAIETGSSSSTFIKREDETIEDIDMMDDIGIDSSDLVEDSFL
EXPERIMENT: Inhibition of partial-length human wild type PDGFR-alpha expressed in mammalian expression system by KINOMEscan assay
pIC50: −log10 of the molar value.
VALUE_KIND: pIC50

>  <SMILES_RECORD>
CN1CCN(c2ccc(-n3cc(-c4ccncc4OCC4CCNCC4)cn3)cc2)CC1

>  <OBSERVED_RESULT>
6.38

$$$$

* * *

TARGET_UNDER_TEST: Maternal embryonic leucine zipper kinase (Homo sapiens, UniProt Q14680)
Sequence (Q14680 whole entry, the tested form may be a part): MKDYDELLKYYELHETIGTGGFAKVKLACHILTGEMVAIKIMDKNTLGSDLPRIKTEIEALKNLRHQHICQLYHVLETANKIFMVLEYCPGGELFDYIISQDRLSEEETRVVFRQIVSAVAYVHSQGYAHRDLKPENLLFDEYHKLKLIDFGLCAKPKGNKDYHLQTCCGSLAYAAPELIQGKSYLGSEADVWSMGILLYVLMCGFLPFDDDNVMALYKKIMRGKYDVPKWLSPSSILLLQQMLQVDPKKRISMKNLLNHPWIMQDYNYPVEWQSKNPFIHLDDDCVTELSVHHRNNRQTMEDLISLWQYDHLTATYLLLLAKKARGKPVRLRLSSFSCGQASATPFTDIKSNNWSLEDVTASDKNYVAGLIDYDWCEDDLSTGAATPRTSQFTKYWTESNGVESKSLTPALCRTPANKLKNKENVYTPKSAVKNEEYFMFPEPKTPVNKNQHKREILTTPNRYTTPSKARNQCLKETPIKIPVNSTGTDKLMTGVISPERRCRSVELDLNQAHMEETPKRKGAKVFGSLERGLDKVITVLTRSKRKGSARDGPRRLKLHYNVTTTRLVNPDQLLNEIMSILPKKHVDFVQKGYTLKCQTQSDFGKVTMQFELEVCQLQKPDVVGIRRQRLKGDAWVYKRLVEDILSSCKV
EXPERIMENT: Inhibition of MELK catalytic domain (unknown origin) preincubated for 20 mins followed by addition of KinEASE STK S1 peptide as substrate in presence of 20 uM ATP measured after 20 mins by time-resolved fluorescence assay
pIC50: −log10 of the molar value.
Param threshold (7) applies to pIC50; output 1 (yes) when value >= threshold, 0 (no) when value < threshold.

>  <SMILES_RECORD>
c1ccc(-n2cc(-c3ccncc3OCC3CCNCC3)cn2)cc1

>  <TARGET_UNDER_TEST>
Maternal embryonic leucine zipper kinase (Homo sapiens, UniProt Q14680)

>  <GROUP>
1 (yes)

$$$$
>  <SMILES_RECORD>
CS(=O)(=O)c1ccc(-n2cc(-c3ccc(O)cc3)cn2)cc1

>  <TARGET_UNDER_TEST>
Maternal embryonic leucine zipper kinase (Homo sapiens, UniProt Q14680)

>  <GROUP>
0 (no)

$$$$
>  <SMILES_RECORD>
CN1CCN(c2ccc(-n3cc(-c4ccncc4OC4CCNCC4)cn3)cc2)CC1

>  <TARGET_UNDER_TEST>
Maternal embryonic leucine zipper kinase (Homo sapiens, UniProt Q14680)

>  <GROUP>
1 (yes)

$$$$
>  <SMILES_RECORD>
Fc1cc(N2CCOCC2)ccc1-n1cc(-c2ccncc2OCC2CCNCC2)cn1

>  <TARGET_UNDER_TEST>
Maternal embryonic leucine zipper kinase (Homo sapiens, UniProt Q14680)

>  <GROUP>
1 (yes)

$$$$
>  <SMILES_RECORD>
Fc1ccccc1-n1cc(-c2ccncc2OCC2CCNCC2)cn1

>  <TARGET_UNDER_TEST>
Maternal embryonic leucine zipper kinase (Homo sapiens, UniProt Q14680)

>  <GROUP>
1 (yes)

$$$$
>  <SMILES_RECORD>
CS(=O)(=O)c1ccc(-n2cc(-c3ccccc3)cn2)cc1

>  <TARGET_UNDER_TEST>
Maternal embryonic leucine zipper kinase (Homo sapiens, UniProt Q14680)

>  <GROUP>
0 (no)

$$$$
>  <SMILES_RECORD>
CC(C)COc1cnccc1-c1cnn(-c2ccc(N3CCN(C)CC3)cc2)c1

>  <TARGET_UNDER_TEST>
Maternal embryonic leucine zipper kinase (Homo sapiens, UniProt Q14680)

>  <GROUP>
1 (yes)

$$$$
>  <SMILES_RECORD>
CN1CCN(c2ccc(-c3cc(-c4ccccc4)n[nH]3)cc2)CC1

>  <TARGET_UNDER_TEST>
Maternal embryonic leucine zipper kinase (Homo sapiens, UniProt Q14680)

>  <GROUP>
0 (no)

$$$$
>  <SMILES_RECORD>
CN1CCN(c2ccc(-n3cc(-c4ccncc4OCC4CCNCC4)cn3)cc2)CC1

>  <TARGET_UNDER_TEST>
Maternal embryonic leucine zipper kinase (Homo sapiens, UniProt Q14680)

>  <GROUP>
1 (yes)

$$$$
>  <SMILES_RECORD>
CN1CCN(c2ccc(-n3cc(-c4ccncc4OC4CCCCC4)cn3)cc2)CC1

>  <TARGET_UNDER_TEST>
Maternal embryonic leucine zipper kinase (Homo sapiens, UniProt Q14680)

>  <GROUP>
1 (yes)

$$$$
>  <SMILES_RECORD>
CS(=O)(=O)c1ccc(-n2cc(-c3ccncc3)cn2)cc1

>  <TARGET_UNDER_TEST>
Maternal embryonic leucine zipper kinase (Homo sapiens, UniProt Q14680)

>  <GROUP>
0 (no)

$$$$
>  <SMILES_RECORD>
c1cc(-c2cnn(-c3ccc(N4CCOCC4)cc3)c2)c(OCC2CCNCC2)cn1

>  <TARGET_UNDER_TEST>
Maternal embryonic leucine zipper kinase (Homo sapiens, UniProt Q14680)

>  <GROUP>
1 (yes)

$$$$
>  <SMILES_RECORD>
O=C(NCc1ccccn1)c1ccc(-n2cc(-c3ccncc3)cn2)cc1

>  <TARGET_UNDER_TEST>
Maternal embryonic leucine zipper kinase (Homo sapiens, UniProt Q14680)

>  <GROUP>
0 (no)

$$$$
>  <SMILES_RECORD>
CN1CCN(c2ccc(-n3cc(-c4ccncc4OC[C@H]4CC[C@H](N)CC4)cn3)cc2)CC1

>  <TARGET_UNDER_TEST>
Maternal embryonic leucine zipper kinase (Homo sapiens, UniProt Q14680)

>  <GROUP>
1 (yes)

$$$$
>  <SMILES_RECORD>
CN1CCN(c2ccc(-n3cc(-c4ccncc4OCc4ccncc4)cn3)cc2)CC1

>  <TARGET_UNDER_TEST>
Maternal embryonic leucine zipper kinase (Homo sapiens, UniProt Q14680)

>  <GROUP>
1 (yes)

$$$$

* * *

TARGET_UNDER_TEST: Serine/threonine-protein kinase haspin (Homo sapiens)
Sequence (Q8TF76 whole entry): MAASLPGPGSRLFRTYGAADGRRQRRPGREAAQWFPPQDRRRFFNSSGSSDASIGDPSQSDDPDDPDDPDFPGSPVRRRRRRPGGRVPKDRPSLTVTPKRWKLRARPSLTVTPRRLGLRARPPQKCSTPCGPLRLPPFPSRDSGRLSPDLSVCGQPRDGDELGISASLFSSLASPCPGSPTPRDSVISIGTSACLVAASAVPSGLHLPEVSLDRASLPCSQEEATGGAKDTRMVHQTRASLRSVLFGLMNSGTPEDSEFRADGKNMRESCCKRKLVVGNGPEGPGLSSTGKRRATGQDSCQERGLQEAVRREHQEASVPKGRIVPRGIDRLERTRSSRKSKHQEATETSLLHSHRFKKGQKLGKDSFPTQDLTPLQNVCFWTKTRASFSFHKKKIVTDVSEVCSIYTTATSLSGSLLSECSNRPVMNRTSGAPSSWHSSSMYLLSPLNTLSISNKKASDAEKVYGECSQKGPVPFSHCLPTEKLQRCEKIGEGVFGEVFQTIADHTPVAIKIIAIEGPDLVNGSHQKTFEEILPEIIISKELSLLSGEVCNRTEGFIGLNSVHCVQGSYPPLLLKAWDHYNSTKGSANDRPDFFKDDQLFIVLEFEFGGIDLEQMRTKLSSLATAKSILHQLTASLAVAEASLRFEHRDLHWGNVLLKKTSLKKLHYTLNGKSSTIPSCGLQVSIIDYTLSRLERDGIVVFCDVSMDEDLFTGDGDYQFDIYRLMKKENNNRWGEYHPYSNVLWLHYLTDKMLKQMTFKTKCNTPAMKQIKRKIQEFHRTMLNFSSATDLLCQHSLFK
VALUE_KIND: IC50

>  <SMILES_RECORD>
CN1CCN(c2ccc(-n3cc(-c4ccncc4OCC4CCNCC4)cn3)cc2)CC1

>  <OBSERVED_RESULT>
190 nM

$$$$

* * *

EXPERIMENT: Cmax in C57BL/6 mouse at 5 mg/kg, po by LC-MS/MS analysis
Assay type: ADME, organism-based
Set-up: dose 5 mg/kg, route oral
CONDITIONS: in vivo

>  <SMILES_RECORD>
c1ccc(-n2cc(-c3ccncc3OCC3CCNCC3)cn2)cc1

>  <READOUT_UNIT>
nM

>  <Cmax>
1030

$$$$

* * *

EXPERIMENT: AUC (0 to 7 hrs) in C57BL/6 mouse at 10 mg/kg, po by LC-MS/MS analysis
Format: ADME, organism-based
Design: time < 7 hr, dose 10 mg/kg, route oral
CONDITIONS: in vivo
VALUE_KIND: AUC(0-t) at 7 h (µM·h)

>  <SMILES_RECORD>
CN1CCN(c2ccc(-n3cc(-c4ccncc4OCC4CCNCC4)cn3)cc2)CC1

>  <OBSERVED_RESULT>
0.0832

$$$$

Hey, just so you know, these numbers are from ChEMBL document CHEMBL3822415.
